- METHOD NOTES: NCI Yeast Anticancer Drug Screen. Data for the bub3 strain (AID 167)
- CONDITIONS: S. cerevisiae bub3 mutant strain, at 50.0 µM, hits give high values
Compounds without any hit were thinned out: in the full panel of roughly 79,000, 15% have a hit.
Listed next: entries and their corresponding growth inhibition.
Could you give me the number in %? Just the number is fine.

INSERT INTO assay_data (chemical_smiles, number) VALUES
  ('Cc1ccc(O)c(C(=O)c2ccccc2)c1', -3.65),
  ('N#CC(=Nc1cccc(F)c1)C1=C(O)c2ccccc2C1=O', 20.5),
  ('FC(F)(F)c1ccc2c(c1)N(CCCN1CCN(C3CC3)CC1)c1ccccc1S2', 99),
  ('COC(=O)/C=C1\Sc2cc(F)ccc2NC1=O', -8.5),
  ('NCC(=O)CCC(=O)O', -0.85);

Let us move to another entry and its growth inhibition.
Prompt line: Returns the measured growth inhibition for the input compound. Input: `COc1cc2nc3cc([N+](=O)[O-])ccc3c(Cl)c2cc1OC`
Response line: -14.2

---

- METHOD NOTES: NCI Yeast Anticancer Drug Screen. Data for the cln2 rad14 strain (AID 165);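 also: 0% = growth equal to vehicle treated cultures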
- CONDITIONS: S. cerevisiae cln2 rad14 strain, at 50.0 µM, hits give high values
Compounds without any hit were thinned out: in the full panel of roughly 79,000, 15% have a hit. Activity calls are given as the source filed them. Rule as the data show it: active = growth inhibition above about 70%; inactive = the rest.
QUANTITY: growth inhibition

INSERT INTO results (compound, result) VALUES
  ('CCCCOC(OCCCC)c1ccccc1', '-18.6% (inactive)'),
  ('CCOc1ccccc1/C=N/Nc1nc2ccccc2o1', '-23.8% (inactive)');

Let's switch to this compound now.
Prompt line: Looking for the measured growth inhibition of `CC(C)CCOC(=O)c1ccccc1` , can you help?
Response line: -68.9% (inactive)

---

- METHOD NOTES: NCI Yeast Anticancer Drug Screen. Data for the mec2-1 strain (AID 157)
- CONDITIONS: S. cerevisiae mec2-1 strain, at 50.0 µM, hits give high values
About 79,000 compounds went through this panel and 15% of them were active in at least one assay; those are over-represented in the sample as a whole.
QUANTITY: growth inhibition (%)
Hi! Could you send only the number? It should be in %, unit omitted.

Some molecules with recorded growth inhibition:
INSERT INTO results (molecule, unit_abbreviation, number) VALUES
  ('COc1cc2cc(c1Cl)N(C)C(=O)C[C@H](OC(=O)[C@H](C)N(C)C(C)=O)[C@]1(C)O[C@H]1[C@H](C)[C@@H]1C[C@@](O)(NC(=O)O1)[C@H](OC)C=C/C=C(\C)C2', '%', -11.4),
  ('CC1(C(=O)O)NC(C(=O)O)Cc2c1[nH]c1ccccc21 (stereo not drawn)', '%', -13.2);

Prompt line: growth inhibition lookup needed for O=C(O)C(c1ccccc1)C(O)c1ccccc1 (stereo not drawn) , thanks.
Response line: -21.4

---

- METHOD NOTES: NCI Yeast Anticancer Drug Screen. Data for the rad50 strain (AID 155);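 also: 0% = growth of vehicle-only cultures of the same strain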
- CONDITIONS: S. cerevisiae rad50 strain growth inhibition; at 50.0 µM; hits give high values
About 79,000 compounds went through this panel and 15% of them were active in at least one assay; those are over-represented in the sample as a whole.
QUANTITY: growth inhibition (%)
Give the value in % but do not write % after it.

See these solved cases before continuing.
INSERT INTO assay_data (compound, number) VALUES
  ('CCS(=O)(=O)CCCl', 12.2),
  ('NC(=O)NC(=O)c1ccc(Cl)cc1', 14.8),
  ('CSC(=N\N=C\c1ccc(N(C)C)cc1)/N=C/N(C)C', -4.3),
  ('CCc1nn(Cc2ccccc2)c2nc(C)c(CCc3ccccc3)c(Cl)c12', -6.85),
  ('CCOC(=O)/C(C#N)=C/c1cccc(C)c1', -19.4),
  ('CC(=O)OCCC(C)CCC=C(C)C (centres undefined)', 14.7),
  ('O=C1c2ccccc2C(=O)N1OCc1ccccc1', -18.1),
  ('CCCCNC1(C#N)CCN(Cc2ccccc2)CC1', -2.25);

Prompt line: Entry `CC(C)OC(=O)c1cc(NC(=S)OC(C)C)ccc1Cl` : reported growth inhibition = ?
Response line: 3.95
